This section presents compounds with their documented GTP binding, percent of control values.
SUBJECT_OF_TEST: GTPase HRas (Homo sapiens) (UniProt P01112)
Sequence (P01112 whole entry, looked up): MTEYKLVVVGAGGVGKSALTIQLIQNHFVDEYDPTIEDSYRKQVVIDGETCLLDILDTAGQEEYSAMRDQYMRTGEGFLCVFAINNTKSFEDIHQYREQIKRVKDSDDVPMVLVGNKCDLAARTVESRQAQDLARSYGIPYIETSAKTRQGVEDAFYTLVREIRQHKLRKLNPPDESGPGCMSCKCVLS
ASSAY_COMMENT: Ras wt fluorescent GTP loading blockade – biochemical, wildtype, multiplex bead flow cytometry, dose response (AID 1335)
SETTINGS: bead-based flow cytometry, Bodipy-GTP binding to GST-Ras; at 100 µM (top of the series) unless noted
Numbers only; they are read as %.

Lookup: # get_value(readout= GTP binding, percent of control, system= GTPase HRas (Homo sapiens) (UniProt P01112)) for `Cc1cc(C)n2nc(C(=O)Nc3cccc(S(=O)(=O)N4CCCC4)c3)nc2n1`
Found: 78.7

----------
efflux inhibition (fraction of control) overview
ASSAY_COMMENT: Nile Red efflux blockade in pump-expressing yeast – validation compound set, multiplex, phenotypic, pilot screen (AID 588506);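 note: Nile Red retained in cells so higher fluorescence means more efflux inhibition; 0 = negative control wells and 1 = enniatin B 25 µM full block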
SETTINGS: S. cerevisiae pump-expressing triplex, Nile Red efflux flow cytometry; at 10 µM; stronger effect = higher value; the pumps come from Candida albicans
// print number alone

MOLECULE	VALUE_REPORTED
Fc1ccc(NC(=S)Nc2ccccc2Cl)cc1	0.37
COc1ccc(CNC(=O)c2c(O)c3cccc4c3n(c2=O)CCC4)cc1	0.62

Lookup: Would you mind telling me what efflux inhibition (fraction of control) value was observed for CCc1cccc2c3c([nH]c12)C(CC)(CC(=O)O)OCC3 (stereo unspecified) ?
Found: -0.26

Lookup: # input molecule: `Cc1cccc(N2CCN(C(=S)c3ccccc3)CC2)c1` ; wanted: its efflux inhibition (fraction of control)
Found: -0.14

Lookup: Name the reported efflux inhibition (fraction of control) value associated with the molecule `COC(=O)c1ccccc1NC(=O)c1ccc(COc2ccc3c(c2)CCC3)cc1`
Found: 0.46

Lookup: What does the record list as efflux inhibition (fraction of control) for `CCOC(=O)N1CCN(Cc2nc(Cc3cccc(F)c3)no2)CC1` ?
Found: 0.02

----------
SUBJECT_OF_TEST: Beta-2 adrenergic receptor (Homo sapiens)
ASSAY_COMMENT: agonist-induced loss of surface beta2AR – cell-based, FAP fluorogen, flow cytometry, validation set, pilot screen (AID 504459);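 note: agonist-driven loss of surface beta2AR via internalization measured by FAP dye flow cytometry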
SETTINGS: Am2.2-beta2AR cells, at 10 µM, stronger effect = higher value
Each entry below lists one item and its recorded response value.
Only the number, expressed in %, is required.

Guide cases for response, answers given:
COMPOUND	SUBJECT_OF_TEST	VALUE_REPORTED
O=C1OC(c2ccccc2)=C/C1=C/c1cccs1	Beta-2 adrenergic receptor (Homo sapiens)	-7.02
CC(C)OC(=O)CC12CN3CN(C1)CC(CC(=O)OC(C)C)(C3)C2=O	Beta-2 adrenergic receptor (Homo sapiens)	-2.44

Lookup: Which response is listed for CSCCC(NC(=O)OC(C)(C)C)C(=O)Oc1ccc2c(=O)c(-c3ccc4c(c3)OCCO4)coc2c1 (configuration not stated) ?
Found: 0.95

Lookup: # get_value(readout='response', item= `CCCC(=O)Nc1ncnc2c1ncn2[C@@H]1O[C@@H]2COP(=O)(O)O[C@H]2[C@H]1OC(=O)CCC` )
Found: -6.04

----------
Examples of compounds with documented GFP response vs DMSO follow.
ASSAY_COMMENT: TOR pathway GLN3 branch reporter MEP2-GFP changes – S. cerevisiae, multiplex flow cytometry, primary screen (AID 1867);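 note: median GFP channel fluorescence of barcode-gated MEP2-GFP cells measured by flow cytometry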
SETTINGS: S. cerevisiae MEP2-GFP strain, 3 h, at 10 µM, stronger effect = higher value, 100% means same as DMSO wells
Results filed as inconclusive are left out.
Quick reminder: number only, in %, skip the unit.

COMPOUND	GFP response vs DMSO (%)
COC1CCN(C(=O)c2ccc(OC3CCN(Cc4ccccn4)CC3)cc2)CC1	109
O=C1ON=C(c2ccc(Cl)cc2)/C1=C/c1ccc(O)cc1	95.2
Cc1ccnc2c1NC(=O)c1cccnc1N2C1CC1	98.3
COc1ccc(CC(=O)NCC2(c3ccc(OC)c(OC)c3)CCOCC2)cc1	96.3

Lookup: Look up GFP response vs DMSO for this compound: `CC(=O)OCC(=O)[C@H]1CC[C@H]2[C@@H]3CCC4=CC(=O)CC[C@]4(C)[C@H]3CC[C@]12C`
Found: 103

----------
ASSAY_COMMENT: TOR pathway GLN3 branch reporter MEP2-GFP changes – S. cerevisiae, multiplex flow cytometry, primary screen (AID 1867);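 note: median GFP channel fluorescence of barcode-gated MEP2-GFP cells measured by flow cytometry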
SETTINGS: S. cerevisiae MEP2-GFP strain, 3 h, at 10 µM, stronger effect = higher value, 100% means same as DMSO wells
Records with an inconclusive call do not appear.
GFP response vs DMSO values for the compounds below.
Use % as the unit, but write only the number.

Below are worked cases with known answers.
COMPOUND	ENDPOINT_LABEL	VALUE_REPORTED
CCC[C@@H]1C[C@@H](C(=O)N[C@H]([C@@H](C)O)[C@H]2O[C@H](SC)[C@H](O)[C@@H](O)C2O)N(C)C1 (stereo partly drawn)	GFP response vs DMSO	120
CC1(C)CC(=O)c2c(nc3ccccc3c2N)C1	GFP response vs DMSO	90.9
O=C(COc1cc(O)c2c(=O)c3ccccc3oc2c1)OCc1ccccc1	GFP response vs DMSO	104

Lookup: GFP response vs DMSO for `O=C(Oc1ccc2c3c(c(=O)oc2c1)CCCC3)c1ccco1` ?
Found: 101

Lookup: Can you look up the measured GFP response vs DMSO of O=C1C(Cc2ccccc2)NC(=S)N1c1ccccc1 (stereo not drawn) for me?
Found: 105

Lookup: Need GFP response vs DMSO, item CCOc1ccc(CC2CCC(=O)NC2=O)cc1 (stereo not drawn)
Found: 102

Lookup: Tell me the measured GFP response vs DMSO of `CN(C)CCC=C1c2ccccc2CCc2ccccc21` , please.
Found: 105

Lookup: If you can, please state the reported GFP response vs DMSO value of `O=C(O)CCSCCC(=O)O` .
Found: 107

----------
ASSAY_COMMENT: TOR pathway RTG branch CIT2 reporter changes – S. cerevisiae, GFP fusion, multiplex flow cytometry, primary screen (AID 1870);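 note: barcoded CIT2-GFP strain pooled with four other GFP strains with rapamycin as positive control; median GFP fluorescence per well over plate mean of DMSO wells so 100% = DMSO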
SETTINGS: S. cerevisiae CIT2-GFP expression, 3 h, at 10 µM, stronger effect = higher value
ENDPOINT_LABEL: percent response of DMSO control (%)
Report the figure in % without appending any unit label.

As a guide, the following entries are already answered.
COMPOUND	ENDPOINT_LABEL	RESULT_UNITS	VALUE_REPORTED
COC(=O)CN1C(=S)N(c2ccc(F)cc2)C(=O)C1CC(=O)Nc1ccccc1 (configuration not stated)	percent response of DMSO control	%	102
Cc1cccc(OCC(=O)Nc2ccc(C(=O)NCC(C)C)cc2)c1	percent response of DMSO control	%	98.3

Lookup: Using the record for `COc1cc(C(=O)N/C(=C\c2cn(C)c3ccccc23)C(=O)NCCCO)cc(OC)c1OC` , report its percent response of DMSO control.
Found: 107

Lookup: Form field: reported percent response of DMSO control of `O=Cc1ccc(O)c(O)c1`
Found: 107

Lookup: Entry `CC(=O)OCC(=O)[C@@]1(O)CC[C@H]2[C@@H]3CCC4=CC(=O)CC[C@]4(C)[C@H]3[C@@H](O)C[C@@]21C` : reported percent response of DMSO control = ?
Found: 96.6

Lookup: May I ask what percent response of DMSO control has been recorded for `COc1ccccc1/C=C/C(=O)c1c2c(c(C)[nH]c1=O)CCCC2` ?
Found: 96.4

Lookup: Look at this compound and give its reported percent response of DMSO control. `O=C(Nc1ccc(F)c([N+](=O)[O-])c1)c1ccc2c(c1)OCCO2`
Found: 104

Lookup: Item `O=[N+]([O-])c1cccc2cn[nH]c12` has what recorded percent response of DMSO control?
Found: 114

Lookup: Which value of percent response of DMSO control has been reported for CCOC(=O)C1=C(N)Oc2c(c(=O)[nH]c3ccccc23)C1c1ccccc1 (configuration not stated) in the records?
Found: 91

Lookup: Quick check: percent response of DMSO control of `CC(=O)[C@H]1CC[C@H]2[C@@H]3CCC4=CC(=O)CC[C@]4(C)[C@H]3[C@H](O)C[C@]12C` ?
Found: 99.2

Lookup: Need percent response of DMSO control of `COc1cc2c(cc1OC)-c1nnc(C)n1C(C)(C)C2` , thanks.
Found: 107

Lookup: Look up percent response of DMSO control: `COc1cc(C)nc(-n2nc(C)cc2OC)n1`
Found: 96.6

Lookup: Could you share which percent response of DMSO control value was measured for Cc1ccc(C2CC(=O)C(C=NCCN3CCN(C(=S)Nc4ccccc4)CC3)=C(O)C2)cc1 (configuration not stated) ?
Found: 91.2

Lookup: Give the measured percent response of DMSO control of `COc1cc(C(=O)OCCn2c(=O)c3c(ncn3CCN(C)C)n(C)c2=O)cc(OC)c1OC` .
Found: 101

Lookup: Which measured percent response of DMSO control value corresponds to `Cc1ccc(-n2cc(CNCCN3CCOC3=O)c(-c3ccc(F)cc3)n2)cc1` ?
Found: 108

Lookup: Endpoint output: percent response of DMSO control of `NC(N)=NC(=O)Cc1c(Cl)cccc1Cl` . Value?
Found: 97.8

Lookup: Request the reported percent response of DMSO control associated with `CN/C(=C/[N+](=O)[O-])NCCSCc1ccc(CN(C)C)o1`
Found: 108

Lookup: Which value of percent response of DMSO control has been reported for COc1cc(C2NCCc3c2[nH]c2ccccc32)ccc1OC(C)C (configuration not stated) in the records?
Found: 106

Lookup: Given the entry `O=C1CC2(CCCC2)CC(=O)N1CCCCN1CCN(c2ncccn2)CC1` , report its measured percent response of DMSO control.
Found: 96.6

Lookup: Field request: percent response of DMSO control | item: `Nc1ccc(S(N)(=O)=O)cc1N`
Found: 99.2

Lookup: percent response of DMSO control lookup needed for `CCNC1=C(Cl)C(=O)c2ccccc2C1=O` , thanks.
Found: 91.8

Lookup: Which percent response of DMSO control is reported for this compound? CC(=O)N(CCC(Cc1ccccc1)c1ccco1)Cc1ccco1 (configuration not stated)
Found: 104

From: PubChem BioAssay
